Data origin, for the record: paper PMC5540273

- Tested on: SGK2
- cond: concentration: 1 μM, replicates: in singlicate; n = 1;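 note: KINOMEscan kinase panel screen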

{"smilesEntry": "O=C(NOCC1CC1)c1ccc(F)c(F)c1Nc1ccc(I)cc1Cl", "unitText": "%", "%Inh": 0}
{"smilesEntry": "CN(C(=O)c1ccc(-c2cc(-c3c[nH]nc3-c3ccccn3)ccn2)cc1)C1CCOCC1", "unitText": "%", "%Inh": 8}
{"smilesEntry": "O=C(c1ccc(-c2cc(-c3c[nH]nc3-c3ccccn3)ccn2)cc1)N1CCOCC1", "unitText": "%", "%Inh": 0}
{"smilesEntry": "Cn1ccc2ncnc(Oc3ccc(NC(=O)Nc4ccncc4)c(Cl)c3)c21", "unitText": "%", "%Inh": 2}
{"smilesEntry": "C[C@@H](Oc1cc(-n2cnc3ccc(NC(=O)NC(C)(C)C)cc32)sc1C(N)=O)c1ccccc1Cl", "unitText": "%", "%Inh": 10}
{"smilesEntry": "CN(C1=C(c2ccccc2)C(=O)NC1=O)c1ccccc1", "unitText": "%", "%Inh": 0}

----------
Listed here are compounds together with their documented %Inh.
- Tested on: HIPK1
- cond: concentration: 1 μM, replicates: in singlicate; n = 1

{"compound": "CCc1nc(-c2cccc(C)c2)c(-c2ccnc(NCc3ccccc3)c2)s1", "%Inh, %": 21}
{"compound": "Fc1ccc(-c2ncn(CCCN3CCOCC3)c2-c2cccnc2)cc1 [SB-211743]", "%Inh, %": 38}
{"compound": "NS(=O)(=O)CCc1cccc(Nc2nccc(-c3c(-c4cccc(NC(=O)c5c(F)cccc5F)c4)nn4ccccc34)n2)c1 [GSK336735]", "%Inh, %": 0}

----------
- Tested on: PAK2
- cond: concentration: 1 μM, replicates: in singlicate; n = 1
Listed here: items and their measured %Inh.

{"molecule": "Cc1nnc(-c2ccc(C)c(-c3ccc(C(=O)Nc4ccc(NS(C)(=O)=O)cc4)cc3)c2)o1 [GW702865]", "%Inh [%]": 0}
{"molecule": "NS(=O)(=O)c1cccc(-c2ccc3nccc(-c4cccc(S(N)(=O)=O)c4)c3c2)c1 [GW867253]", "%Inh [%]": 53}
{"molecule": "COc1ccc(Nc2nccc(N3CCC(NC(=O)Nc4cc(C)ccc4C)C3)n2)cc1 (stereo not drawn) [GSK1379741]", "%Inh [%]": 0}
{"molecule": "O=C1NC(=O)C(N2CCc3ccccc32)=C1c1cccc(Cl)c1 [SB-408010]", "%Inh [%]": 44}
{"molecule": "Cc1nnc(-c2ccc3ncc(-c4ccc(S(C)=O)cc4)n3c2)o1 (stereo not drawn)", "%Inh [%]": 3}
{"molecule": "COC(=O)Nc1nc2cc(Oc3ccc(NC(=O)Nc4cc(F)ccc4F)cc3)ccc2[nH]1.Cl [GW701424]", "%Inh [%]": 0}
{"molecule": "N#Cc1ccc(-c2cc(-c3c[nH]nc3-c3ccccn3)ccn2)cc1 [GW693028]", "%Inh [%]": 9}
{"molecule": "COc1ccc(COc2cc(-n3cnc4ccccc43)sc2C(N)=O)cc1 [GSK1024304]", "%Inh [%]": 4}
{"molecule": "c1ccc(-c2cc(-c3c[nH]nc3-c3ccccn3)ccn2)cc1 [GW576604]", "%Inh [%]": 13}

----------
- System: BRSK2
- cond: concentration: 1 μM, replicates: in singlicate; n = 1

{"compound": "CSc1ccc(-c2cc3ncnc(SCC(=O)O)c3s2)cc1", "%Inh": "10%"}
{"compound": "COc1ccc(CNC(=O)NC2CCN(c3ccnc(Nc4ccc(OC)cc4)n3)C2)cc1 (stereo not drawn)", "%Inh": "0%"}
{"compound": "COc1cc2ncn(-c3cc(OCc4sccc4Cl)c(C(N)=O)s3)c2cc1OC", "%Inh": "45%"}
{"compound": "[2H]C([2H])(c1cccc(C(F)(F)F)c1C)n1ccn2c(=O)nc(N3CCOCC3)cc12", "%Inh": "0%"}
{"compound": "COc1ccc(Nc2nccc(N3CCC(NC(=O)Nc4cc(C)ccc4C)C3)n2)cc1 (stereo not drawn)", "%Inh": "0%"}
{"compound": "COc1cc2c(cc1OC[C@@H](O)CO)ncc1c3ccc(C#N)cc3[nH]c21", "%Inh": "0%"}
{"compound": "Fc1ccc(-c2nn3c(OCC(F)(F)F)cccc3c2-c2ccncc2)cc1", "%Inh": "0%"}
{"compound": "CCCCCc1nc2c(N)ncnc2n1CCCCC", "%Inh": "22%"}
{"compound": "NCC(NC(=O)c1cc(-c2cn[nH]c2)c(-c2ccnc3[nH]ccc23)s1)c1ccccc1.O=C(O)C(F)(F)F.O=C(O)C(F)(F)F (stereo not drawn)", "%Inh": "21%"}
{"compound": "Cc1ccc(C(=O)NCC(N)=O)cc1-n1c(C)cc(OCc2ccc(F)cc2F)c(Br)c1=O", "%Inh": "39%"}
{"compound": "Cc1ccc(NC(=O)c2ccnc(N3CCN(C)CC3)c2)cc1-c1ccc(C(=O)NCC2CC2)cc1", "%Inh": "0%"}
{"compound": "O=C(NOCC1CC1)c1ccc(F)c(F)c1Nc1ccc(I)cc1Cl", "%Inh": "0%"}
